Recorded values, source patent US20220242936A1.

Listed next: entries and their corresponding kon.
target: T1, Aβ1-42 polypeptide (human); experiment: SPR, Biacore T200, antibody captured on Protein A chip, human Aβ antigen as analyte
T1 construct: Synthetic peptide; also called Aβ1-42 monomer; Aβ monomer
T1 sequence (peptide, as listed by the source): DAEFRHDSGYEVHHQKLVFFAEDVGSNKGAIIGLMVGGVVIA
observation.type: kon

>>> result_value("066-4.26.14H2L3 (antibody, human IgG1, V domains shown, Humanized full-length antibody; human IgG1 heavy constant and human kappa light constant (vectors pGS003-hIgG1CH, pGS003-hIgKCL)) VH: EVQLVESGGGLVKPGGSLRLSCAASGFTFRSYAMSWVRQTPEKRLEWVASISTTSNTYYPDSVKGRFTTSRDNAKNSVYLQMSSLRAEDTAVYYCGRGVITNQAWFAYWGQGTTVTVSS VL: DIVLTQSPDFQSVTPKEKVTISCRASQSISNNLHWYQQKPDQSPKLLIKYASQSISGIPSRFSGSGSGTDFTLTINSLEAEDAAAYFCQQSNSWPLTFGPGTKVEIKR")
"18300 M⁻¹ s⁻¹"
>>> result_value("066-4.26.14H5L1 (antibody, human IgG1, V domains shown, Humanized full-length antibody; human IgG1 heavy constant and human kappa light constant (vectors pGS003-hIgG1CH, pGS003-hIgKCL)) VH: EVQLVESGGGLVQPGGSLRLSCVASGFTFRSYAMSWVRQAPGKGLEWVASISTTSNTYYPDSVKGRFTTSRDNSKNTVYLQMSSLRAEDTAVYYCGRGVITNQAWFAYWGQGTLVTVSS VL: DIVLTQSPATLSVSPGERVTLSCRASQSISNNLHWYQQKSGQAPRLLIKYASQSISGIPSRFSGSGSGTDFTLTISSLQSEDFAVYFCQQSNSWPLTFGGGTQVEIKR")
"18900 M⁻¹ s⁻¹"
>>> result_value("066-4.26.14 mouse-human chimeric antibody (antibody, human IgG1, V domains shown) VH: EVKLVESGGGLVKPGGSLKLSCAASGFTFRSYAMSWVRQTPEKRLEWVASISTTSNTYYPDSVKGRFTTSRDNARNIVYLQMSSLRSDDTAMYYCGRGVITNQAWFAYWGQGTLVTVSA VL: DIVLTQSPATLSVTPGDSVSLSCRASQSISNNLHWYQQKSHESPRLLIKYASQSISGIPSRFSGSGSGTDFTLSVNNVGTEDFGMYFCQQSNSWPLTFGAGTKLELKR")
"26500 M⁻¹ s⁻¹"
>>> result_value("066-4.26.14H4L2 (antibody, human IgG1, V domains shown, Humanized full-length antibody; human IgG1 heavy constant and human kappa light constant (vectors pGS003-hIgG1CH, pGS003-hIgKCL)) VH: EVQLVESGGGLVQPGGSLRLSCAASGFTFRSYAMSWVRQAPGKGLEWVASISTTSNTYYPDSVKGRFTTSRDNAKNSVYLQMSSLRDEDTAMYYCGRGVITNQAWFAYWGQGILVTVSS VL: DIVLTQSPATLSVSPGERATLSCRASQSISNNLHWYQQKPGQAPRLLIKYASQSISGIPARFSGSGSGTDFTLTISSLQSEDFAVYFCQQSNSWPLTFGGGTKVEIKR")
"12800 M⁻¹ s⁻¹"
